The values you see were collected from ChEMBL document CHEMBL3414508.

PROCEDURE_SUMMARY: Cytotoxicity against MDCK cells after 72 hrs by MTS assay
Format: cell-based, Canis lupus familiaris
ASSAY_SETUP: dog
READOUT_KIND: CC50 at 72 h (µM)
Enter your answer as a number in µM; do not include the unit.

Past entries and their recorded results:
COC(=O)[C@H]1NC(=O)[C@H]2NC(=O)[C@H](NC(=O)[C@@H]3NC(=O)[C@H]4NC(=O)[C@H](NC(=O)[C@H](N)c5ccc(O)c(c5)Oc5cc4cc(O)c5C)[C@H](O)c4ccc(cc4)Oc4cc3cc(c4O)Oc3ccc(cc3)[C@H]2O)c2ccc(O)c(c2)-c2c(O)cc(O)cc21	44
COC(=O)[C@H]1NC(=O)[C@H]2NC(=O)[C@H](NC(=O)[C@@H]3NC(=O)[C@H]4NC(=O)[C@@H](Cc5ccc(c(Cl)c5)Oc5cc3cc(c5O)Oc3ccc(cc3Cl)[C@H]2O)NC(=O)[C@H](Nc2c(NCc3ccc(-c5ccccc5)cc3)c(=O)c2=O)c2ccc(O)c(c2)Oc2cc(O)cc4c2)c2ccc(O)c(c2)-c2c(O)cc(O)cc21	7.6
COC(=O)[C@H]1NC(=O)[C@H]2NC(=O)[C@H](NC(=O)[C@@H]3NC(=O)[C@H]4NC(=O)[C@H](NC(=O)[C@H](Nc5c(NCc6ccc(-c7ccccc7)cc6)c(=O)c5=O)c5ccc(O)c(c5)Oc5cc4cc(O)c5C)[C@H](O)c4ccc(cc4)Oc4cc3cc(c4O)Oc3ccc(cc3)[C@H]2O)c2ccc(O)c(c2)-c2c(O)cc(O)cc21	39
COc1c(N[C@H]2C(=O)N[C@@H]3Cc4ccc(c(Cl)c4)Oc4cc5cc(c4O)Oc4ccc(cc4Cl)[C@@H](O)[C@@H]4NC(=O)[C@H](NC(=O)[C@@H]5NC(=O)[C@@H](NC3=O)c3cc(O)cc(c3)Oc3cc2ccc3O)c2ccc(O)c(c2)-c2c(O)cc(O)cc2[C@@H](C(=O)O)NC4=O)c(=O)c1=O	49

Which CC50 at 72 h reading was recorded for the molecule "COC(=O)[C@H]1NC(=O)[C@H]2NC(=O)[C@H](NC(=O)[C@@H]3NC(=O)[C@H]4NC(=O)[C@@H](Cc5ccc(c(Cl)c5)Oc5cc3cc(c5O)Oc3ccc(cc3Cl)[C@H]2O[C@@H]2O[C@H](CO)[C@@H](O)[C@H](O)[C@H]2NC(C)=O)NC(=O)[C@H](Nc2c(NCc3ccc(-c5ccccc5)cc3)c(=O)c2=O)c2ccc(O)c(c2)Oc2cc(O)cc4c2)c2ccc(O)c(c2)-c2c(O)cc(O)cc21" ?
58

Suppose we examine the molecule "O=C1N[C@H]2C(=O)N[C@H]3C(=O)N[C@H](C(=O)N[C@H](C(=O)O)c4cc(O)cc(O)c4-c4cc3ccc4O)[C@H](O)c3ccc(c(Cl)c3)Oc3cc2cc(c3O)Oc2ccc(cc2Cl)C[C@H]2NC(=O)[C@H](Nc3c(NCc4ccc(-c5ccccc5)cc4)c(=O)c3=O)c3ccc(O)c(c3)Oc3cc(O)cc(c3)[C@@H]1NC2=O" ; what CC50 at 72 h value has been reported?
11
